Data credit: patent US20240150365A1

assayed system: MALT1 (Homo sapiens)
Sequence (Q9UDY8 whole entry): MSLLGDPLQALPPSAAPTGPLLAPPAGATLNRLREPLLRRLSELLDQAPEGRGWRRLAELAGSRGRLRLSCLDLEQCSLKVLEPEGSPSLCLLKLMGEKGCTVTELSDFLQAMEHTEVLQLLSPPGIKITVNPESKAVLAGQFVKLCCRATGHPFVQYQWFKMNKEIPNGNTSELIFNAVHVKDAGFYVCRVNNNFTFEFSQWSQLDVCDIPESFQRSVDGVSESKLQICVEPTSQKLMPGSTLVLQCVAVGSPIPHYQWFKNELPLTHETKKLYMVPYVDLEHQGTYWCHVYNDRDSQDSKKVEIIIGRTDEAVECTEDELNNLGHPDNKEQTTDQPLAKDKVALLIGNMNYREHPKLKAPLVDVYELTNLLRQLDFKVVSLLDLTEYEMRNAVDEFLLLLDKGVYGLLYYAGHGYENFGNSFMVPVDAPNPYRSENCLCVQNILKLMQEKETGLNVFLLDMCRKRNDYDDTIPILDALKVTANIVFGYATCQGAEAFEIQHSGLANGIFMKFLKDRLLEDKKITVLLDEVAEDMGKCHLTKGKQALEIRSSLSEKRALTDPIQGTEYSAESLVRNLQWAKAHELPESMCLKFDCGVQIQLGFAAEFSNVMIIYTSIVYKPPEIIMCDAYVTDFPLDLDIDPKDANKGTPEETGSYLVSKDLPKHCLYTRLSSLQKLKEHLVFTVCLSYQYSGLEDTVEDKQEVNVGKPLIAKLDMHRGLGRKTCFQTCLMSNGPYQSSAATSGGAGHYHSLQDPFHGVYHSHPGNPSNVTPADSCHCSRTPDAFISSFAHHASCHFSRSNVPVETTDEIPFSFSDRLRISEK
quantity: IC50

Solved cases (3 shown):
structure	assayed system	result
Cn1c(-c2ccc(S(=O)(=O)Nc3cccc4cnn(C)c34)cn2)cnc1C(F)(F)F	MALT1 (Homo sapiens)	> 2.5 µM
COc1ncc2cnn(C)c2c1N(C)S(=O)(=O)c1ccc(-n2cc(C(F)(F)F)cn2)nc1	MALT1 (Homo sapiens)	< 0.4 µM
COc1ccc2cnn(C)c2c1NS(=O)(=O)c1ccc(-n2cc(C)[nH]c2=O)nc1	MALT1 (Homo sapiens)	< 0.4 µM

Proceeding to the next compound to report its IC50.
-- ask Using the record for Cn1cc(-c2ccc(S(=O)(=O)Nc3cccc4cnn(C)c34)cn2)ccc1=O , report its IC50.
-- reply > 2.5 µM
